molecular target: 5-hydroxytryptamine receptor 2A (Homo sapiens, UniProt P28223); assay: Agonist activity at human 5-HT2A receptor expressed in Flp-IN HEK293 cells assessed as induction of calcium flux measured every second for 5 mins by Fluo-4 dye based FLIPR assay
Sorting guide: entries reporting EC50 beneath 0.4 µM go in the Fulfilled pile, the rest go in the Not fulfilled pile.

Solved cases (3 shown):
molecule	assayed_target	category
COc1ccccc1C(C)NCC1CC1c1cc(F)ccc1OC.Cl (racemic)	5-hydroxytryptamine receptor 2A (Homo sapiens, UniProt P28223)	Fulfilled
COc1ccc(F)cc1[C@H]1C[C@@H]1CNCc1ccccc1F.Cl	5-hydroxytryptamine receptor 2A (Homo sapiens, UniProt P28223)	Not fulfilled
COc1cccc(CNC[C@@H]2C[C@H]2c2cc(F)ccc2OC)c1.Cl	5-hydroxytryptamine receptor 2A (Homo sapiens, UniProt P28223)	Not fulfilled

Is the reported EC50 for COc1ccc(F)cc1C1CC1CNCC1CC1.Cl (racemic) strictly below 0.4 µM?
Not fulfilled

Lab note: EC50 threshold 0.4 µM. Does this molecule come in strictly under it? COc1ccc(F)cc1C1CC1CNCc1ccsc1OC.Cl (racemic)
Not fulfilled

Given the entry `COc1ccc(F)cc1[C@H]1C[C@@H]1CNCc1ccccc1Cl.Cl` , would its reported EC50 be below 0.4 µM?
Not fulfilled

Lab note: EC50 threshold 0.4 µM. Does this molecule come in strictly under it? `COc1ccc(F)cc1[C@H]1C[C@@H]1CNCc1cccs1.Cl`
Not fulfilled

Report whether reported EC50 is lower than 0.4 µM (strictly) for `CNC[C@H]1C[C@@H]1c1cc(F)ccc1OC`
Fulfilled

# check: EC50 < 0.4 µM for COc1ccc(F)cc1C1CC1CNCc1sccc1OC.Cl (racemic)
Fulfilled

Hello, is EC50 of the following molecule strictly smaller than 0.4 µM? `C=CCOc1ccc(F)cc1[C@H]1C[C@@H]1CNC.Cl`
Fulfilled

In plain terms, does COc1ccc(F)cc1C1CC1CNCc1cccc2ccsc12 (racemic) come in under 0.4 µM for EC50?
Not fulfilled

In plain terms, does COc1ccccc1CCNCC1CC1c1cc(F)ccc1OC (racemic) come in under 0.4 µM for EC50?
Fulfilled

---

target: 5-HT2A receptor (Homo sapiens, UniProt P28223); test: Agonist activity at human 5-HT2A receptor expressed in Flp-IN HEK293 cells assessed as induction of calcium flux measured every second for 5 mins by Fluo-4 dye based FLIPR assay relative to serotonin; format: cell-based; conditions: Flp-IN HEK293 cells expressing human 5-HT2A receptor
Sequence (P28223 whole entry): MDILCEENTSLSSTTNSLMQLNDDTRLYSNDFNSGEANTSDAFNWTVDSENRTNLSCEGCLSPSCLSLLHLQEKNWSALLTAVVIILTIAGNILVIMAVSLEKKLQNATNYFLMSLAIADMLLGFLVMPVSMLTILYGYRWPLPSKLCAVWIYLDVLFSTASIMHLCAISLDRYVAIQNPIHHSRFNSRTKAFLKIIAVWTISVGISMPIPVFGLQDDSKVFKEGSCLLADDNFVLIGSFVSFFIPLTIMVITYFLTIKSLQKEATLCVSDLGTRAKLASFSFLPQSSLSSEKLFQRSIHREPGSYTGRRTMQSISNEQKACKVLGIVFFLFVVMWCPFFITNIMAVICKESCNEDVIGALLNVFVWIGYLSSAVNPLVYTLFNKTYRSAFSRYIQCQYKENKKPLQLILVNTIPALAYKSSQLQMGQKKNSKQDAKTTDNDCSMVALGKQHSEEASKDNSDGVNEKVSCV
endpoint: Emax at 5 min (%)
Answers are plain numbers, in %.

molecule	Emax at 5 min / %
COc1cccc(CNC[C@H]2C[C@@H]2c2cc(F)ccc2OC)c1.Cl	70
COc1ccc(F)cc1C1CC1CNCc1cccc2ccsc12 (racemic)	70
COc1ccc(F)cc1C1CC1CNC1CC1 (racemic)	69

Query molecule follows.
Reported Emax at 5 min for COc1ccc(F)cc1C1CC1CNCc1cccc2cccnc12 (racemic) was 69

All figures here come from ChEMBL document CHEMBL4011649.
